Data provenance is patent US9035059B2.

molecular target: UniProtKB Q3SYC2; assay: Test Example 1: Test of MGAT2 inhibitory action (human MGAT2 enzyme fraction from Sf9 cells, free CoA detected by CPM fluorescence); format: biochemical; settings: human MGAT2 enzyme fraction expressed in Sf9 insect cells, 0.5 μg/ml, 2-monooleoyl glycerol 0.78 μM, oleoyl-CoA 5.3 μM, room temperature 20 min, listed as 10-10, read-out: Activity Value [nM] (IC50, concentration at which 50% of produced free CoA was inhibited)
MEASURED PROPERTY: IC50 (nM)
Answers are plain numbers, in nM.

Give recorded IC50 with UniProtKB Q3SYC2 for the following compound: CCCCCCCCOc1ccc(NS(=O)(=O)c2ccc3c(c2)CCN(C(C)Cc2ccc(C(C)(C)C)cc2)C3)c(F)c1 (stereo not shown) 97

* * *

Target: human MGAT2 (Homo sapiens (Human))
Assay: Test Example 1: Test of MGAT2 inhibitory action (human MGAT2 enzyme fraction from Sf9 cells, free CoA detected by CPM fluorescence)
Type: biochemical
Settings: human MGAT2 enzyme fraction expressed in Sf9 insect cells, 0.5 μg/ml, 2-monooleoyl glycerol 0.78 μM, oleoyl-CoA 5.3 μM, room temperature 20 min, listed as 10-12, read-out: Activity Value [nM] (IC50, concentration at which 50% of produced free CoA was inhibited)
Procedure: The MGAT2 inhibitory action of the inventive compound was measured by the methods described in Test Examples as shown below. The MGAT enzyme activity was measured based on the amount of an indicator, free Coenzyme A (CoA) which is generated by the reaction shown below, using a sulfhydryl reactive pigment (7-diethylamino-3-(4-maleimidophenyl)-4-methylcoumarin; hereinafter, sometimes abbreviated as CPM). […]
MEASURED PROPERTY: IC50 (nM)
Give bare numbers, in nM.

// lookup IC50 for CC(Cc1ccc(C(C)(C)C)cc1)N1CCc2cc(S(=O)(=O)Nc3ccc(OCCCCCc4ccccc4)cc3F)ccc2C1 (single isomer, unassigned) [Working Example 10-12] 42

* * *

molecular target: human MGAT2 (Homo sapiens (Human)); assay: Test Example 1: Test of MGAT2 inhibitory action (human MGAT2 enzyme fraction from Sf9 cells, free CoA detected by CPM fluorescence); type: biochemical; conditions: human MGAT2 enzyme fraction expressed in Sf9 insect cells, 0.5 μg/ml, 2-monooleoyl glycerol 0.78 μM, oleoyl-CoA 5.3 μM, room temperature 20 min, read-out: Activity Value [nM] (IC50, concentration at which 50% of produced free CoA was inhibited)
Please note: IC50 exactly at 100 nM is F. Only values below 100 nM get T.

CC(c1ccc(C(C)(C)C)cc1)N1CCc2cc(S(=O)(=O)Nc3ccc(OCCCc4ccccc4)cc3F)ccc2C1 (stereo not shown)    F
CC(C)(C)c1ccc(NC(=O)N2Cc3ccc(S(=O)(=O)Nc4ccc(OCCOc5ccc(F)cc5)cc4F)cc3C2)cc1    F
CC(C)(C)[C@H]1CC[C@H](C(=O)N2CCc3cc(S(=O)(=O)Nc4ccc(CCCC5CCCC5)cc4F)ccc3C2)CC1    T
CC(C)(C)c1ccc(NC(=O)N2Cc3ccc(S(=O)(=O)Nc4ccc(OCCCC5CCCCC5)cc4F)cc3C2)cc1    T

Does the reported IC50 of the following compound sit strictly below 100 nM? CC(C)(C)c1ccc(NC(=O)N2Cc3ccc(S(=O)(=O)Nc4ccc(OCCc5ccccn5)cc4F)cc3C2)cc1 T

Does the reported IC50 of the following compound sit strictly below 100 nM? CCCCCCCCOc1ccc(NS(=O)(=O)c2ccc3c(c2)CCN(CCc2ccc(C(C)(C)C)cc2)C3)c(F)c1 T

Does the reported IC50 of the following compound sit strictly below 100 nM? CC(C)(C)c1ccc(NC(=O)N2Cc3ccc(S(=O)(=O)Nc4ccc(OCCCC(F)(F)F)cc4F)cc3C2)cc1 F

* * *

molecular target: human MGAT2 (Homo sapiens (Human)); experiment: Test Example 1: Test of MGAT2 inhibitory action (human MGAT2 enzyme fraction from Sf9 cells, free CoA detected by CPM fluorescence); format: biochemical; details: human MGAT2 enzyme fraction expressed in Sf9 insect cells, 0.5 μg/ml, 2-monooleoyl glycerol 0.78 μM, oleoyl-CoA 5.3 μM, room temperature 20 min, read-out: Activity Value [nM] (IC50, concentration at which 50% of produced free CoA was inhibited)
Please note: IC50 exactly at 60 nM is N. Only values below 60 nM get Y.

Some entries whose results are on file:
CC(C)(C)c1ccc(CCN2CCc3cc(S(=O)(=O)Nc4ccc(OCCCCCc5ccccc5)cc4F)ccc3C2)cc1 [17-5]    Y
CC(C)(C)c1ccc(NC(=O)N2Cc3ccc(S(=O)(=O)Nc4ccc(OCCC5CCCC5)cc4F)cc3C2)cc1 [18-32]    Y

Query compound follows.
Does the reported IC50 of the following compound sit strictly below 60 nM? CC(C)(C)c1ccc(CN2CCc3cc(S(=O)(=O)Nc4ccc(OCCC5CCOCC5)cc4F)ccc3C2)cc1 [Working Example 6-66] N

* * *

target: UniProt Q3SYC2; experiment: Test Example 1: Test of MGAT2 inhibitory action (human MGAT2 enzyme fraction from Sf9 cells, free CoA detected by CPM fluorescence); type: biochemical; settings: human MGAT2 enzyme fraction expressed in Sf9 insect cells, 0.5 μg/ml, 2-monooleoyl glycerol 0.78 μM, oleoyl-CoA 5.3 μM, room temperature 20 min, listed as 10-4, read-out: Activity Value [nM] (IC50, concentration at which 50% of produced free CoA was inhibited)
MEASURED PROPERTY: IC50 (nM)
Numbers only, in nM.

// lookup IC50 for CCCCCCOc1ccc(NS(=O)(=O)c2ccc3c(c2)CCN(C(C)Cc2ccc(C(C)(C)C)cc2)C3)c(F)c1 (single isomer, unassigned) 39

* * *

biological target: MGAT2 (microsomal fraction of human small intestine) (Homo sapiens (Human)); test: Test Example 2: Test of MGAT2 inhibitory action (microsomal fraction of human small intestine, 3H-labeled 2-monooleoyl glycerol); format: biochemical; settings: microsomal fraction of human small intestine 5 μg/ml; 4 μM oleoyl-CoA, 1.25 μM 2-monooleoyl glycerol, 0.125 μM 3H-labeled 2-monooleoyl glycerol; room temperature 30 min; read-out: Activity Value [nM] (IC50, concentration at which 50% of the products 3H-labeled dioleoyl glycerol and trioleoyl glycerol was inhibited)
Sequence (Q3SYC2 whole entry): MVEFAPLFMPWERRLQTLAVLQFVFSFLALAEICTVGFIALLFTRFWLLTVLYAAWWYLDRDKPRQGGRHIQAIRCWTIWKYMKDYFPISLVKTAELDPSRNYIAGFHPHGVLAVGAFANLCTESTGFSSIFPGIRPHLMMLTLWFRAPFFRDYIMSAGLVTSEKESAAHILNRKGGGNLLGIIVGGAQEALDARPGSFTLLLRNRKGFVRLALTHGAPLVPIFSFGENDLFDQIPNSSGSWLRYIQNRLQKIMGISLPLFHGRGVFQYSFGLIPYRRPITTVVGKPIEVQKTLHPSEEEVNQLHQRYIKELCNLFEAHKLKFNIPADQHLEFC
MEASURED PROPERTY: IC50 (nM)
Answers are plain numbers, in nM.

Cc1ccc(-n2nc(C)c(CN3CCc4cc(S(=O)(=O)Nc5ccc(CCCC6CCCC6)cc5F)ccc4C3)c2C)cc1    66
CC(c1ccc(C(F)(F)F)nc1)N1CCc2cc(S(=O)(=O)Nc3ccc(CCCC4CCCC4)cc3F)ccc2C1 (single isomer, unassigned) [24-3]    42
CC(c1ccc(C(F)(F)F)nc1)N1CCc2cc(S(=O)(=O)Nc3ccc(CCCC4CCCC4)cc3F)ccc2C1 (single isomer, unassigned) [24-4]    185
CC(c1cnc(C(C)(C)C)nc1)N1CCc2cc(S(=O)(=O)Nc3ccc(CCCC4CCCC4)cc3F)ccc2C1 (single isomer, unassigned) [24-7]    57
CC(C)(C)c1cnc(CCN2CCc3cc(S(=O)(=O)Nc4ccc(CCCC5CCCC5)cc4F)ccc3C2)cn1    46
CC(C)(C)c1ccc(CCN2CCc3cc(S(=O)(=O)Nc4ccc(OCCCOCC(F)(F)F)cc4F)ccc3C2)cc1    158
CC(C)(C)c1cc(CN2CCc3cc(S(=O)(=O)Nc4ccc(CCCC5CCCC5)cc4F)ccc3C2)ccn1    71
CC(C)(C)c1ccc(CC(C)(C)N2CCc3cc(S(=O)(=O)Nc4ccc(OCCC5CCOCC5)cc4F)ccc3C2)cc1    223

Consider the following items and state reported IC50 for each.
1. O=S(=O)(Nc1ccc(CCCC2CCCC2)cc1F)c1ccc2c(c1)CCN(Cc1cnn(CC3CC3)c1)C2
2. O=S(=O)(Nc1ccc(CCCC2CCCC2)cc1F)c1ccc2c(c1)CCN(CCc1ccc(C(F)(F)F)cn1)C2
3. CC(C)(C)c1ccc(CCN2CCc3cc(S(=O)(=O)Nc4ccc(OCCOCC5CCCCO5)cc4F)ccc3C2)cc1 (stereo not shown)
4. CC(C)(C)c1ccc(CC2(N3CCc4cc(S(=O)(=O)Nc5ccc(CCCC6CCCC6)cc5F)ccc4C3)CC2)cc1

[234, 46, 178, 200]

Give recorded IC50 with MGAT2 (microsomal fraction of human small intestine) (Homo sapiens (Human)) for the following molecule: CC(C)(C)c1ccc(C(C)(C)N2CCc3cc(S(=O)(=O)Nc4ccc(CCCC5CCCC5)cc4F)ccc3C2)cn1 5

* * *

Biological target: UniProtKB Q3SYC2
Test: Test Example 1: Test of MGAT2 inhibitory action (human MGAT2 enzyme fraction from Sf9 cells, free CoA detected by CPM fluorescence)
Type: biochemical
Settings: human MGAT2 enzyme fraction expressed in Sf9 insect cells, 0.5 μg/ml, 2-monooleoyl glycerol 0.78 μM, oleoyl-CoA 5.3 μM, room temperature 20 min, read-out: Activity Value [nM] (IC50, concentration at which 50% of produced free CoA was inhibited)
Protocol: The MGAT2 inhibitory action of the inventive compound was measured by the methods described in Test Examples as shown below. The MGAT enzyme activity was measured based on the amount of an indicator, free Coenzyme A (CoA) which is generated by the reaction shown below, using a sulfhydryl reactive pigment (7-diethylamino-3-(4-maleimidophenyl)-4-methylcoumarin; hereinafter, sometimes abbreviated as CPM). […]
MEASURED PROPERTY: IC50
Form field: result (number plus unit)

Here is how some compounds turned out for IC50.
CC(C)(C)c1ccc(CCN2CCc3cc(S(=O)(=O)Nc4ccc(CCCC5CCCC5)cc4F)ccc3C2)cc1    28 nM
CCCCCCCc1ccc(NS(=O)(=O)c2ccc3c(c2)CCN(Cc2cnc(C(C)(C)C)s2)C3)c(F)c1    42 nM
CCCCCCOc1ccc(NS(=O)(=O)c2ccc3c(c2)CCN(CCc2ccc(C(C)(C)CO)cc2)C3)c(F)c1    214 nM

Consider the following items and state reported IC50 for each.
1. CCCCCCCOc1ccc(NS(=O)(=O)c2ccc3c(c2)CCN(CCc2ccc(C(C)(C)C)cc2)C3)c(F)c1
2. CC(C)(C)c1ccc(CCN2CCc3cc(S(=O)(=O)Nc4ccc(OCCCc5ccccc5)cc4F)ccc3C2)cn1
3. CC(C)(C)c1ccc(NC(=O)N2Cc3ccc(S(=O)(=O)Nc4ccc(OCCCCc5ccccc5)cc4F)cc3C2)cc1
4. COc1cc(F)ccc1NS(=O)(=O)c1ccc2c(c1)CN(C(=O)Nc1ccc(C(C)(C)C)cc1)C2
5. CC(C)Oc1ccc(CN2CCc3cc(S(=O)(=O)Nc4ccc(CCCC5CCCC5)cc4F)ccc3C2)cc1
6. CC(C)(C)c1ccc(NC(=O)N2Cc3ccc(S(=O)(=O)Nc4ccc(OCC5CCCCC5)cc4F)cc3C2)cc1

1. 40 nM
2. 286 nM
3. 30 nM
4. 168 nM
5. 199 nM
6. 230 nM

Consider the following items and state reported IC50 for each.
1. CC(C)(C)c1ccc(NC(=O)N2Cc3ccc(S(=O)(=O)Nc4ccc(OCCC5CCCCC5)cc4F)cc3C2)cc1
2. CC(C)(C)c1ccc(NC(=O)N2Cc3ccc(S(=O)(=O)Nc4ccc(OCCOC5CCCC5)cc4F)cc3C2)cc1
3. CC(C)(C)c1ccc(CC(=O)N2CCc3cc(S(=O)(=O)Nc4ccc(OCCC5CCCCC5)cc4F)ccc3C2)cc1
4. O=S(=O)(Nc1ccc(CCCC2CCCC2)cc1F)c1ccc2c(c1)CCN(CCCC(F)(F)F)C2
5. O=S(=O)(Nc1ccc(CCCC2CCCC2)cc1F)c1ccc2c(c1)CCN(CCc1ccc(OC(F)(F)F)cc1)C2
6. COc1ccc(NS(=O)(=O)c2ccc3c(c2)CN(C(=O)Nc2ccc(C(C)(C)C)cc2)C3)c(F)c1
7. O=C(NC1CCCCC1)N1CCc2cc(S(=O)(=O)Nc3ccc(CCCC4CCCC4)cc3F)ccc2C1
8. CCCCCCOc1ccc(NS(=O)(=O)c2ccc3c(c2)CCN(CCc2cnc(C(C)(C)C)cn2)C3)c(F)c1

["29 nM", "128 nM", "149 nM", "162 nM", "256 nM", "164 nM", "69 nM", "212 nM"]

Consider the following items and state reported IC50 for each.
1. CC(C)(C)c1ccc(NC(=O)N2Cc3ccc(S(=O)(=O)Nc4ccc(OCCC5CC5)cc4F)cc3C2)cc1
2. CC(C)(C)[C@H]1CC[C@@H](C(=O)N2CCc3cc(S(=O)(=O)Nc4ccc(CCCC5CCCC5)cc4F)ccc3C2)CC1
3. CC(C)(C)c1ccc(CCN2CCc3cc(S(=O)(=O)Nc4ccc(OCCCC5CCCCC5)cc4F)ccc3C2)cc1
4. CCCCCCOc1ccc(NS(=O)(=O)c2ccc3c(c2)CCN(C(=O)Nc2ccc(C(C)(C)C)cc2)C3)c(F)c1
5. CC(C)(C)c1cnc(CN2CCc3cc(S(=O)(=O)Nc4ccc(CCCC5CCCC5)cc4F)ccc3C2)cn1

1: 266 nM; 2: 292 nM; 3: 39 nM; 4: 98 nM; 5: 233 nM
